Listed below: NanoBRET Fold Response values for each entry.
- TEST_SYSTEM: RXFP1 (Homo sapiens, UniProt Q9HBX9)
- Construct: purchased Promega (in-house HiBiT-GPCR construct library, NanoBRET)
- Sequence (Q9HBX9 1-757): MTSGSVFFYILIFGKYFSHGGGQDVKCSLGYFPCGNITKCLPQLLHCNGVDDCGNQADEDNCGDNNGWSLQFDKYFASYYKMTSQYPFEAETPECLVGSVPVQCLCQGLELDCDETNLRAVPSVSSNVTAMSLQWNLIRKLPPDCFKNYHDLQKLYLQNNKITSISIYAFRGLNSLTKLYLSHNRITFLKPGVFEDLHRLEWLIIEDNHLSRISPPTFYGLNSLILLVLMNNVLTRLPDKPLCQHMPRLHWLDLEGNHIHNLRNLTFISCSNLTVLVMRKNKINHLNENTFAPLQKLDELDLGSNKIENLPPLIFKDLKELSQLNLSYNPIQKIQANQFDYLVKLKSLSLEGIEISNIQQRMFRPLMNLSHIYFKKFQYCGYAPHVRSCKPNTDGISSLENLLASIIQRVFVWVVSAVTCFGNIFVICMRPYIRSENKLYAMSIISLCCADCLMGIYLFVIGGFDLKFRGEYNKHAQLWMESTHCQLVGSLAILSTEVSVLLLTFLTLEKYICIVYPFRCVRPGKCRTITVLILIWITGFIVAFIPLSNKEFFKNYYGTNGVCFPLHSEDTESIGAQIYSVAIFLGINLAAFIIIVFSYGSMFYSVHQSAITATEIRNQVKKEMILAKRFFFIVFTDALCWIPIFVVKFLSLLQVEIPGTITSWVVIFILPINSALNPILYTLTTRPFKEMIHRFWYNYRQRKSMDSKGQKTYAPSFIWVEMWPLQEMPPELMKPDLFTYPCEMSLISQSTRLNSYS
- EXPERIMENT_DESCRIPTION: NanoBRET screen HiBiT-RXFP1 in HEK293
- Assay type: binding
- CONDITION_SUMMARY: RXFP1; tracer 1μM
Lab note: record the figure alone, no unit after it.

{"columns": ["COMPOUND", "NanoBRET Fold Response"],
 "data": [
  ["Cc1cc2c(s1)Nc1ccccc1N=C2N1CCN(CCCNC(=O)CCOCCOCCOCCOCCNC(=O)CCc2ccc3n2[B-](F)(F)[N+]2=C(c4ccc[nH]4)C=CC2=C3)CC1 [Olanzapine-a-2-NB590]", 0.79],
  ["COc1ccccc1N1CCN(CCCCN2C(=O)c3ccc(CNC(=O)CCOCCNC(=O)c4ccc(CNC(=O)CCc5ccc6n5[B-](F)(F)[N+]5=C(c7ccc[nH]7)C=CC5=C6)cc4)cc3C2=O)CC1 [NAN-190-3-NB590]", 0.90],
  ["CC(C)N(CC[C@H](c1ccccc1)c1cc(CCNC(=O)c2ccc(CNC(=O)CCc3ccc4n3[B-](F)(F)[N+]3=C(c5ccc[nH]5)C=CC3=C4)cc2)ccc1O)C(C)C [Tolterodine-BZ-NB590]", 1.23],
  ["Cc1nc2n(c(=O)c1CCN1CCC(c3noc4cc(F)ccc34)CC1)CCCC2OC(=O)NCCOCCOCCOCCOCCNC(=O)CCc1ccc2n1[B-](F)(F)[N+]1=C(c3ccc[nH]3)C=CC1=C2 (stereo not drawn) [Risperidone-2-NB590]", 0.90],
  ["CCCn1c(=O)c2[nH]c(-c3ccc(OCC(=O)NCCNC(=O)CCOCCNC(=O)c4ccc(CNC(=O)CCc5ccc6n5[B-](F)(F)[N+]5=C(c7ccc[nH]7)C=CC5=C6)cc4)cc3)nc2n(CCC)c1=O [XAC-3-NB590]", 0.93]
]}

Bench note, RXFP1 (Homo sapiens, UniProt Q9HBX9): entry O=C(CCOCCOCCOCCOCCNC(=O)CCc1ccc2n1[B-](F)(F)[N+]1=C(c3ccc[nH]3)C=CC1=C2)NCCCN1CCN(C2=Nc3ccccc3Oc3ccc(Cl)cc32)CC1 [Loxapine-a-2-NB590] , its NanoBRET Fold Response = 0.80
